# System: CCRF-CEM
# Assay Summary: Inhibitory concentration required to inhibit human T-lymphocyte (CEM) cell line by 50%
# Type: functional, cell-based
Property Name: log10 of IC50 (log10 of the value in µM)

- Compound: "OCCOCn1cnc2c(S)nc(F)nc21"
  log10 of IC50: 2.07
- Compound: "CC(=O)OCCOCn1cnc2c(S)nc(N)nc21"
  log10 of IC50: 0.88
- Compound: "CC(=O)OC(C)Cn1cnc2c(S)nc(N)nc21 (stereo unspecified)"
  log10 of IC50: 2.58
- Compound: "CC(=O)OC(C)Cn1cnc2c(N)nc(I)nc21 (stereo unspecified)"
  log10 of IC50: 2.58
- Compound: "CC(O)Cn1cnc2c(N)nc(I)nc21 (stereo unspecified)"
  log10 of IC50: 2.67
- Compound: "CC(=O)OC(C)Cn1cnc2c(Cl)nc(F)nc21 (stereo unspecified)"
  log10 of IC50: 1.64
- Compound: "CC(=O)OCCOCn1cnc2c(Cl)nc(I)nc21"
  log10 of IC50: 1.04
- Compound: "CC(=O)OCCOCn1cnc2c(S)nc(F)nc21"
  log10 of IC50: 1.57
- Compound: "CC(=O)OC(C)Cn1cnc2c(Cl)nc(I)nc21 (stereo unspecified)"
  log10 of IC50: 1.20

----------
# Test system: MOLT-4
# Assay Summary: Inhibitory concentration required to inhibit human T-lymphocyte (Molt4/C8) cell line by 50%
# Format: functional, cell-based

- Compound: "CC(=O)OCCOCn1cnc2c(S)nc(N)nc21"
  Target Of Assay: "MOLT-4"
  Unit Abbreviation: "µM"
  Relation: "="
  IC50: 8.9
- Compound: "CC(O)Cn1cnc2c(F)nc(N)nc21 (stereo unspecified)"
  Target Of Assay: "MOLT-4"
  Unit Abbreviation: "µM"
  Relation: ">"
  IC50: 500
- Compound: "CC(O)Cn1cnc2c(N)nc(I)nc21 (stereo unspecified)"
  Target Of Assay: "MOLT-4"
  Unit Abbreviation: "µM"
  Relation: ">"
  IC50: 500
- Compound: "CC(=O)OCCOCn1cnc2c(S)nc(F)nc21"
  Target Of Assay: "MOLT-4"
  Unit Abbreviation: "µM"
  Relation: "="
  IC50: 35
- Compound: "CC(=O)OC(C)Cn1cnc2c(N)nc(I)nc21 (stereo unspecified)"
  Target Of Assay: "MOLT-4"
  Unit Abbreviation: "µM"
  Relation: "="
  IC50: 436
- Compound: "CC(=O)OC(C)Cn1cnc2c(Cl)nc(F)nc21 (stereo unspecified)"
  Target Of Assay: "MOLT-4"
  Unit Abbreviation: "µM"
  Relation: "="
  IC50: 41
- Compound: "Nc1nc(I)nc2c1ncn2COCCO"
  Target Of Assay: "MOLT-4"
  Unit Abbreviation: "µM"
  Relation: ">"
  IC50: 500
- Compound: "CC(O)Cn1cnc2c(Cl)nc(I)nc21 (stereo unspecified)"
  Target Of Assay: "MOLT-4"
  Unit Abbreviation: "µM"
  Relation: ">"
  IC50: 500
- Compound: "CC(=O)OCCOCn1cnc2c(Cl)nc(I)nc21"
  Target Of Assay: "MOLT-4"
  Unit Abbreviation: "µM"
  Relation: "="
  IC50: 9.4
- Compound: "CC(=O)OC(C)Cn1cnc2c(S)nc(F)nc21 (stereo unspecified)"
  Target Of Assay: "MOLT-4"
  Unit Abbreviation: "µM"
  Relation: ">"
  IC50: 500
- Compound: "CC(O)Cn1cnc2c(S)nc(F)nc21 (stereo unspecified)"
  Target Of Assay: "MOLT-4"
  Unit Abbreviation: "µM"
  Relation: ">"
  IC50: 500
- Compound: "CC(=O)OC(C)Cn1cnc2c(Cl)nc(I)nc21 (stereo unspecified)"
  Target Of Assay: "MOLT-4"
  Unit Abbreviation: "µM"
  Relation: "="
  IC50: 12.3
- Compound: "CC(=O)OC(C)Cn1cnc2c(S)nc(N)nc21 (stereo unspecified)"
  Target Of Assay: "MOLT-4"
  Unit Abbreviation: "µM"
  Relation: "="
  IC50: 370
- Compound: "CC(=O)OC(C)Cn1cnc2c(Cl)nc(N)nc21 (stereo unspecified)"
  Target Of Assay: "MOLT-4"
  Unit Abbreviation: "µM"
  Relation: ">"
  IC50: 500
- Compound: "COc1nc(I)nc2c1ncn2COCCO"
  Target Of Assay: "MOLT-4"
  Unit Abbreviation: "µM"
  Relation: ">"
  IC50: 500
- Compound: "OCCOCn1cnc2c(S)nc(F)nc21"
  Target Of Assay: "MOLT-4"
  Unit Abbreviation: "µM"
  Relation: "="
  IC50: 164
